measured-on: PCSK9 (Homo sapiens)
Construct: endogenous in cells; host or cells: HepG2 (ATCC HB-8065)
Sequence (Q8NBP7 153-692): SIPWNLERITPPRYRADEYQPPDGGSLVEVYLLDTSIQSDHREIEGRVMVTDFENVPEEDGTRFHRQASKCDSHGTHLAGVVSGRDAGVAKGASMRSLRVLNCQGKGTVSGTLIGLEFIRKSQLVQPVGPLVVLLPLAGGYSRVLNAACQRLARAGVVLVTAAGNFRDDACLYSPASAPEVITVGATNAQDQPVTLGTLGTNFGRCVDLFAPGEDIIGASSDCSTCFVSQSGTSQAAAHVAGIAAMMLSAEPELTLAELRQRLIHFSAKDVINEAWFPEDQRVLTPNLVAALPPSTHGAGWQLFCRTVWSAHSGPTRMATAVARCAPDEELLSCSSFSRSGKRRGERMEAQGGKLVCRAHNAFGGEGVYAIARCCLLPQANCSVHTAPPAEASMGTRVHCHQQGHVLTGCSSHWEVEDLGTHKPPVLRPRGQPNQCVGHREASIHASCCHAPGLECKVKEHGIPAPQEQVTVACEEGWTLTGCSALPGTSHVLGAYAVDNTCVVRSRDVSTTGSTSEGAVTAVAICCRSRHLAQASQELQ
assay-procedure: ELISA of secreted (extracellular, medium) PCSK9 in HepG2 cells
Format: cell-based
test-conditions: 1 μM compound, HepG2 cells, DMSO = 100%
Under this convention, Met denotes Activity at 1 μM (% of remaining PCSK9) strictly below 30% and Not met denotes Activity at 1 μM (% of remaining PCSK9) at or above 30%.

Is Activity at 1 μM (% of remaining PCSK9) of Fc1ccc2nc(Cc3c[nH]c4c(F)cccc34)n(Cc3cccnc3)c2c1 strictly below 30%?
Not met

Answer whether the molecule CC(C)(C)Cn1c(Cc2c[nH]c3c(F)cccc23)nc2ccc(F)cc21 has Activity at 1 μM (% of remaining PCSK9) strictly less than 30%
Not met

Strictly below 30% in Activity at 1 μM (% of remaining PCSK9)? OCCn1c(Cc2c[nH]c3c(F)cccc23)nc2ccc(F)cc21
Not met

is_below(Activity at 1 μM (% of remaining PCSK9), 30%) for Cn1c(Cc2c[nH]c3c(F)cccc23)nc2ccc(F)cc21 ?
Not met

Determine whether this molecule shows Activity at 1 μM (% of remaining PCSK9) lower than 30% (ties excluded): Fc1ccc2nc(Cc3c[nH]c4c(F)cccc34)n(Cc3ccncc3)c2c1
Not met

Consider the molecule O=C(c1cc2ccccc2[nH]1)c1c[nH]c2ccccc12 . Is its Activity at 1 μM (% of remaining PCSK9) strictly less than 30%?
Met

Is the reported Activity at 1 μM (% of remaining PCSK9) for O=C(c1cc2cc(F)ccc2[nH]1)c1c[nH]c2ccccc12 strictly below 30%?
Met

I wonder whether [2H]C([2H])(c1nc2cc(F)ccc2[nH]1)c1c[nH]c2c(F)cccc12 has Activity at 1 μM (% of remaining PCSK9) below 30%. Can you tell?
Not met

Dear colleague, could you confirm whether Activity at 1 μM (% of remaining PCSK9) of Fc1ccc2nc(Cc3c[nH]c4c(F)cccc34)n(Cc3ccccc3)c2c1 falls below 30%? Thanks.
Not met

Here's an entry: O=C(c1nc2ccccc2[nH]1)c1c[nH]c2c(F)cccc12 . Is its Activity at 1 μM (% of remaining PCSK9) below 30%?
Met

Dear colleague, could you confirm whether Activity at 1 μM (% of remaining PCSK9) of Cn1c(C(=O)c2c[nH]c3c(F)cccc23)nc2ccc(F)cc21 falls below 30%? Thanks.
Met

Problem: For the molecule Fc1ccc2nc(Cc3c[nH]c4c(F)cccc34)n(CCc3ccccc3)c2c1 , is Activity at 1 μM (% of remaining PCSK9) under 30%?
Not met

Given the entry O=C(c1cc2ccccc2[nH]1)c1c[nH]c2c(F)cccc12 , would its reported Activity at 1 μM (% of remaining PCSK9) be below 30%?
Met

Hello, I'm reviewing records and need to know if Activity at 1 μM (% of remaining PCSK9) of O=C(c1cc2cc(F)ccc2[nH]1)c1c[nH]c2c(F)cccc12 is below 30%. Could you check?
Met

# TODO verify Activity at 1 μM (% of remaining PCSK9) < 30% strictly for this molecule: O=C(c1nc2ccc(F)cc2[nH]1)c1c[nH]c2c(F)cccc12
Met

Say whether its Activity at 1 μM (% of remaining PCSK9) is strictly beneath 30%. Entry: CC(C)Cn1c(Cc2c[nH]c3c(F)cccc23)nc2ccc(F)cc21
Not met
